Reference for the values: the Deep4Chem optical property database

assay: photoluminescence quantum yield (fraction); solvent given as SMILES; conditions: in CCO
Grouping key: photoluminescence quantum yield. Bins: class 1 = under 0.06, class 2 = from 0.06 up to 0.6, class 3 = 0.6 and over

Answered cases to consult:
INSERT INTO assay_data (compound, cat) VALUES
  ('COC(=O)C(NC(=O)CCNc1cccc2ccccc12)c1ccccc1 (centres undefined)', 'class 2'),
  ('O=c1c2cc(F)c(O)cc2oc2cc(N3CCCCC3)c(F)cc12', 'class 2'),
  ('CC1CC=C(c2ccc(-c3ccc(C=O)s3)s2)CC1 (centres undefined)', 'class 2'),
  ('CC/[NH+]=c1\cc2oc3cc(NC)c(C)cc3c(-c3ccccc3C(=O)OCC)c-2cc1C', 'class 3'),
  ('Cc1cc(=O)oc2cc3cc(O)ccc3cc12', 'class 2'),
  ('Cc1ccc(C2=C3C=C(I)C=[N+]3[B-](F)(F)n3cccc32)cc1', 'class 1'),
  ('COc1ccc(-c2cc3c(o2)=CC2=Cc4cc5oc(-c6ccc(OC)cc6)cc5n4[B-](F)(F)[N+]=32)cc1', 'class 3'),
  ('CC1(C)CC(/C=C/c2ccc(-n3c4ccccc4c4ccccc43)cc2)=CC(=C(C#N)C#N)C1', 'class 1'),
  ('CCCC(=O)c1c2c(c(C(=O)CCC)c3c1OC(CC(=O)OC)(C(=O)O)O3)OCO2', 'class 2'),
  ('CNc1cccc2c1C(=O)c1ccccc1-2', 'class 2');

Request: Tag the class for "CN1C(=CC=Cc2nc3nc4ccccc4nc3s2)C(C)(C)c2ccccc21"
Result: class 3

Request: Tag the class for "CC1=CC(C)=[N+]2C1=C(c1c3ccccc3c(-c3ccccc3)c3ccccc13)c1c(C)cc(C)n1[B-]2(F)F"
Result: class 1

Request: Tag the class for "N#C/C(=C/Nc1ccc(C#N)cc1)c1nc(-c2ccccc2)cs1"
Result: class 1

---

assay: photoluminescence quantum yield (fraction); solvent given as SMILES; settings: in ClCCl
testReadout: photoluminescence quantum yield
Lab note: jot the number down without any unit.

INSERT INTO assay_data (smilesentry, number) VALUES
  ('O=Cc1ccc(C2=C3C=c4c(oc5ccccc45)=[N+]3[B-](F)(F)n3c2cc2c4ccccc4oc23)cc1', 0.5),
  ('Cc1ccc(/C=C/c2nc(-c3ccc([N+](=O)[O-])cc3)[nH]c2/C=C/c2ccc(C)cc2)cc1', 0),
  ('COc1ccc(-c2cc(-c3ccccc3)nn2C)cc1', 0.21);

Entry under test: "COc1cc(OC)cc(C2=CC(c3ccccc3)=C(c3ccccc3)C2)c1" . Its photoluminescence quantum yield was 0.0361

Entry under test: "Nc1ccc(C#Cc2ccc3ccc4ccc(C#Cc5ccc(N)cc5)c5ccc2c3c45)cc1" . Its photoluminescence quantum yield was 0.646

Entry under test: "Cc1ccc(O)c(-c2[nH]c(=O)n3c2-c2ccccc2C3=O)c1" . Its photoluminescence quantum yield was 0.62

Entry under test: "COc1ccc(C#Cc2c3cc4ccccc4cc3c(C#Cc3ccc(OC)cc3)c3cc4ccccc4cc23)cc1" . Its photoluminescence quantum yield was 0.03

Entry under test: "CCCCN(CCCC)c1ccc(C#Cc2cc(C#Cc3ccc(C#N)cc3)c(C#Cc3ccc(N(CCCC)CCCC)cc3)cc2C#Cc2ccc(C#N)cc2)cc1" . Its photoluminescence quantum yield was 0.25
